- assay-protocol: Particle size distribution of micronized (jet-milled) material, laser diffraction
- Format: physicochemical
- applied-conditions: Example 50 setup run, feed rate 9.6 kg/hr, venturi/mill pressures 10 psi
outcome-measure: dv10 (µm)
Kindly provide the numeric value in µm only, without the unit symbol.

Task item: So what does the record say about dv10 for N#CCC1(n2cc(-c3ncnc4[nH]ccc34)cn2)CN(S(=O)(=O)C2CC2)C1 ?
Reply: 4

* * *

- assay-protocol: Particle size distribution of micronized (jet-milled) material, laser diffraction
- Format: physicochemical
- applied-conditions: Example 50 setup run, feed rate 9.6 kg/hr, venturi/mill pressures 10 psi
outcome-measure: dv90

Task item: So what does the record say about dv90 for N#CCC1(n2cc(-c3ncnc4[nH]ccc34)cn2)CN(S(=O)(=O)C2CC2)C1 [sample “I”] ?
Reply: 53 µm
